Reference source for all entries: ChEMBL document CHEMBL1137777

Assay: Plasma concentration in NMRI nu/nu mouse at 40 mg/kg, po administered as single dose after 2 hrs
Assay type: ADME, organism-based
Parameters: dose 40 mg/kg, route oral
observable: concentration at 2 h (nM)
Lab book: enter the figure in nM, no units written.

In: // lookup concentration at 2 h for COC(=O)c1ccc2c(c1)NC(=O)/C2=C(\Nc1ccc(CN(C)C(=O)N(C)C)cc1)c1ccccc1
Out: 1250

====

System: Mus musculus
Test: AUC in NMRI nu/nu mouse at 50 mg/kg, po administered as single dose
Assay type: ADME, organism-based, Plasma
Design: dose 50 mg/kg, route oral
Conditions: in vivo
observable: AUC (µM·h)
Lab book: enter the figure in µM·h, no units written.

In: // lookup AUC for COC(=O)c1ccc2c(c1)NC(=O)/C2=C(\Nc1ccc(N(C)C(=O)CN2CCN(C)CC2)cc1)c1ccccc1
Out: 2.75
